- Test system: BT-474
- Method summary: normalised response (% of control), CellTox Green; higher = less cell death (100 = DMSO, 0 = benzethonium chloride kill control)
- Assay setup: incubation time: 72 h
Overview of reported normalised response across a group of compounds:

| Compound | Measurement units | normalised response |
| --- | --- | --- |
| CC(C)N(CCCNC(=O)Nc1ccc(C(C)(C)C)cc1)C[C@H]1O[C@@H](n2cc(Br)c3c(N)ncnc32)[C@H](O)[C@@H]1O [SGC0946] (10000 nM) | % | 85.2 |
| Cc1ccc(Nc2nccc(N(C)c3ccc4c(C)n(C)nc4c3)n2)cc1S(N)(=O)=O [Pazopanib] (1000 nM) | % | 104 |
| CC(C)N(CCCNC(=O)Nc1ccc(C(C)(C)C)cc1)C[C@H]1O[C@@H](n2cc(Br)c3c(N)ncnc32)[C@H](O)[C@@H]1O [SGC0946] (1000 nM) | % | 97.3 |
| COc1nc(N)nc2c1ncn2[C@@H]1O[C@H](CO)[C@@H](O)[C@@H]1O [Nelarabine] (10000 nM) | % | 96 |

Cited source: the supplement of paper PMC4862054
